Hello, the source for this data is patent US20120208848A1, in case you need it.

- EXPERIMENT_NOTES: Solubility of gacyclidine chloride salt and free base in water / Ringer's solution
- Format: physicochemical
- EXPERIMENTAL_PARAMETERS: saline or isotonic, thermodynamic from solid; free base in Ringer's solution reacting with dissolved carbon dioxide, pH 7.6
MEASURED_PROPERTY: solubility thermodynamic

Q: I have this molecule here, CC1CCCCC1(c1cccs1)N1CCCCC1.Cl (stereo not shown) [gacyclidine] , and I need its recorded solubility thermodynamic.
Ans: ~20 µg/mL

----------
- EXPERIMENT_NOTES: Solubility of gacyclidine as a function of pH and excipients, room temperature, glass vials
- Format: physicochemical
- EXPERIMENTAL_PARAMETERS: buffered aqueous solution, aqueous buffer, kinetic from dmso stock; pH 9.7, 1 mM added, room temperature, two days, glass, presence or absence of 0.1% SOLUPHOR P
MEASURED_PROPERTY: solubility kinetic at 2 days (µM)
Number in µM, nothing else.

Q: I have this compound here, CC1CCCCC1(c1cccs1)N1CCCCC1.Cl (stereo not shown) [gacyclidine] , and I need its recorded solubility kinetic at 2 days.
Ans: 2.6
